# Test system: Plasmopara viticola
# assay-explanation: Test E: preventive control of grape downy mildew on grape seedlings
# Format: in vivo
# settings: sprayed day before inoculation, rate not given
endpoint-label: Test E disease control rating (%)
# number only, unit % dropped from output

Example entries and their recorded answers appear below.
CC(NC(=O)c1c(I)ccnc1Cl)c1ncc(Br)cc1Br (stereo not shown) | 100
CC(NC(=O)c1c(I)ccnc1F)c1ncc(Br)cc1Br (stereo not shown) | 100
Cc1cc(Cl)c(C(=O)NC(C)c2ncc(Br)cc2Cl)c(Cl)n1 (stereo not shown) | 100
CC(NC(=O)c1c(Cl)ccnc1Cl)c1ncc(Br)cc1Cl (racemic) | 100
Cc1cnc(C(C)NC(=O)c2c(Cl)ccnc2Cl)c(C)c1 (stereo not shown) | 57

Query block: Note Test E disease control rating for the compound shown: O=C(NCc1ncc(Cl)cc1Cl)c1c(Cl)ccnc1Cl
Result block: 70

Query block: Note Test E disease control rating for the compound shown: CC(NC(=O)c1c(I)ccnc1Cl)c1ncc(Br)cc1Cl (stereo not shown)
Result block: 100

====

# Tested on: Plasmopara viticola
# assay-explanation: Test E: preventive control of grape downy mildew on grape seedlings
# Assay type: in vivo
# settings: sprayed day before inoculation, rate not given
A collection of compounds and their measured Test E disease control rating
# number only, unit % dropped from output

CC(NC(=O)c1c(Br)ccnc1F)c1ncc(Br)cc1Br (stereo not drawn) [Compound 39] | 100

Query block: Note Test E disease control rating for the compound shown: CC(NC(=O)c1c(Cl)ccnc1Cl)c1ncc(I)cc1Cl (stereo not drawn) [Compound 3]
Result block: 95

Query block: Note Test E disease control rating for the compound shown: CC(NC(=O)c1c(Cl)ccnc1Cl)c1ncc(F)cc1Cl (stereo not drawn) [Compound 5]
Result block: 70

====

# Tested on: Phytophthora infestans
# assay-explanation: whole plant or invertebrate
# Assay type: in vivo
# settings: Phytophthora infestans, in Solanum tuberosum, 120 h, read-out: Test F disease control rating
A collection of molecules and their measured pest or weed control at 100 g/ha
# number only, unit % dropped from output

Query block: Note pest or weed control at 100 g/ha for the molecule shown: O=C(NCc1ncc(Cl)cc1Cl)c1c(Cl)ccnc1Cl
Result block: 100

Query block: Note pest or weed control at 100 g/ha for the molecule shown: Cc1cc(Cl)c(C(=O)NCc2ncc(Cl)cc2Cl)c(Cl)n1
Result block: 0

Query block: Note pest or weed control at 100 g/ha for the molecule shown: Cc1cc(Cl)c(C(=O)NC(C)c2ncc(Cl)cc2Cl)c(Cl)n1 (centres unmarked)
Result block: 53

====

A collection of compounds and their measured Test E disease control rating
# System: Plasmopara viticola
# assay-explanation: Test E: preventive control of grape downy mildew on grape seedlings
# Assay type: in vivo
# settings: sprayed day before inoculation, rate not given
# number only, unit % dropped from output

Example entries and their recorded answers appear below.
Cc1cc(Cl)c(C(=O)NC(C)c2ncc(I)cc2Br)c(Cl)n1 (stereo not drawn) | 100
Cc1cc(Cl)c(C(=O)NC(C)c2ncc(Br)cc2Br)c(Cl)n1 (stereo not drawn) | 100
CC(NC(=O)c1c(Cl)ccnc1Cl)c1ncc(OC(F)F)cc1Cl (stereo not drawn) | 100
Cc1cc(Cl)c(C(=O)NCc2ncc(Cl)cc2Cl)c(Cl)n1 | 100
Cc1cc(Cl)c(C(=O)NC(C)c2ncc(I)cc2Cl)c(Cl)n1 (stereo not drawn) | 100

Query block: Note Test E disease control rating for the compound shown: Cc1cc(Cl)c(C(=O)NCc2ncc(I)cc2Br)c(Cl)n1
Result block: 100

Query block: Note Test E disease control rating for the compound shown: Cc1cc(Cl)c(C(=O)NCc2ncc(Br)cc2Br)c(Cl)n1
Result block: 100

Query block: Note Test E disease control rating for the compound shown: O=C(NCc1ncc(Br)cc1Cl)c1c(Cl)ccnc1Cl
Result block: 88

Query block: Note Test E disease control rating for the compound shown: CC(NC(=O)c1c(Cl)ccnc1Cl)c1ncc(Br)cc1Br (stereo not drawn)
Result block: 100

====

# Tested on: Plasmopara viticola
# assay-explanation: Test E: preventive control of grape downy mildew on grape seedlings
# Type: in vivo
# settings: sprayed day before inoculation, rate not given
endpoint-label: Test E disease control rating (%)
# number only, unit % dropped from output

CC(NC(=O)c1c(I)ccnc1Cl)c1ncc(Cl)cc1Cl (centres unmarked) [Compound 27] | 100
O=C(NCc1ncc(Br)cc1Br)c1c(Cl)ccnc1Cl [Compound 17] | 99
O=C(NCc1ncc(Cl)cc1Br)c1c(Cl)ccnc1Cl [Compound 6] | 70
Cc1cc(Cl)c(C(=O)NCc2ncc(Cl)cc2Br)c(Cl)n1 [Compound 40] | 100

API: the following record is the query input.
Query block: Enter Test E disease control rating (test system Plasmopara viticola) for Cc1cc(Cl)c(C(=O)NCc2ncc(I)cc2Cl)c(Cl)n1 [Compound 16]
Result block: 100

====

# System: Plasmopara viticola
# assay-explanation: Test G: curative control of grape downy mildew on grape seedlings (sprayed after inoculation)
# Type: in vivo
# settings: sprayed day after inoculation, rate not given
A collection of compounds and their measured Test G disease control rating
# number only, unit % dropped from output

Example entries and their recorded answers appear below.
COc1cnc(C(C)NC(=O)c2c(Cl)ccnc2Cl)c(Cl)c1 (stereo not shown) | 94
O=C(NCc1ncc(Br)cc1Cl)c1c(I)ccnc1Cl | 84
Cc1cc(Cl)c(C(=O)NC(C)c2ncc(I)cc2Cl)c(Cl)n1 (stereo not shown) | 100
CC(NC(=O)c1c(Cl)ccnc1Cl)c1ncc(Br)cc1Br (stereo not shown) | 100
O=C(NCc1ncc(Cl)cc1Br)c1c(Cl)ccnc1Cl | 99

API: the following record is the query input.
Query block: Note Test G disease control rating for the compound shown: CC(NC(=O)c1c(Cl)ccnc1Cl)c1ncc(Br)cc1I (stereo not shown)
Result block: 96

====

# Test system: Plasmopara viticola
# assay-explanation: Test G: curative control of grape downy mildew on grape seedlings (sprayed after inoculation)
# Format: in vivo
# settings: sprayed day after inoculation, rate not given
endpoint-label: Test G disease control rating (%)
# number only, unit % dropped from output

Query block: Note Test G disease control rating for the molecule shown: Cc1cc(Cl)c(C(=O)NCc2ncc(Br)cc2Cl)c(Cl)n1 [Compound 14]
Result block: 100

Query block: Note Test G disease control rating for the molecule shown: O=C(NCc1ncc(Br)cc1Cl)c1c(Cl)ccnc1Cl [Compound 9]
Result block: 99

Query block: Note Test G disease control rating for the molecule shown: O=C(NCc1ncc(Cl)cc1Cl)c1c(I)ccnc1Cl [Compound 26]
Result block: 99

Query block: Note Test G disease control rating for the molecule shown: CC(NC(=O)c1c(Cl)ccnc1Cl)c1ncc(Br)cc1Cl (racemic) [Compound 2]
Result block: 100

Query block: Note Test G disease control rating for the molecule shown: COc1cnc(C(C)NC(=O)c2c(Cl)cc(C)nc2Cl)c(Cl)c1 (stereo not drawn) [Compound 21]
Result block: 77

Query block: Note Test G disease control rating for the molecule shown: CC(NC(=O)c1c(Br)ccnc1F)c1ncc(Cl)cc1Cl (stereo not drawn) [Compound 38]
Result block: 100

Query block: Note Test G disease control rating for the molecule shown: Cc1cnc(C(C)NC(=O)c2c(Cl)ccnc2Cl)c(C)c1 (stereo not drawn) [Compound 10]
Result block: 0

Query block: Note Test G disease control rating for the molecule shown: Cc1cc(Cl)c(C(=O)NC(C)c2ncc(I)cc2Br)c(Cl)n1 (stereo not drawn) [Compound 43]
Result block: 100

Query block: Note Test G disease control rating for the molecule shown: CC(NC(=O)c1c(I)ccnc1F)c1ncc(Br)cc1Cl (stereo not drawn) [Compound 33]
Result block: 100

====

# System: Phytophthora infestans
# Assay type: in vivo
# settings: tomato (or potato) seedlings, sprayed day before inoculation; rate not given
A collection of molecules and their measured Test D disease control rating
# number only, unit % dropped from output

Example entries and their recorded answers appear below.
CC(NC(=O)c1c(I)ccnc1Cl)c1ncc(Cl)cc1Cl (stereo not shown) | 100
CC(NC(=O)c1c(I)ccnc1Cl)c1ncc(Br)cc1Br (stereo not shown) | 100
COc1cnc(C(C)NC(=O)c2c(Cl)cc(C)nc2Cl)c(Cl)c1 (stereo not shown) | 99
Cc1cnc(C(C)NC(=O)c2c(Cl)ccnc2Cl)c(C)c1 (stereo not shown) | 99
Cc1cc(Cl)c(C(=O)NC(C)c2ncc(Br)cc2Br)c(Cl)n1 (stereo not shown) | 100
Cc1cc(Cl)c(C(=O)NCc2ncc(Br)cc2Br)c(Cl)n1 | 100
Cc1cc(Cl)c(C(=O)NCc2ncc(I)cc2Cl)c(Cl)n1 | 100
O=C(NCc1ncc(Cl)cc1Cl)c1c(I)ccnc1Cl | 100

Query block: Note Test D disease control rating for the molecule shown: Cc1cc(Cl)c(C(=O)NC(C)c2ncc(Cl)cc2Br)c(Cl)n1 (stereo not shown)
Result block: 100

Query block: Note Test D disease control rating for the molecule shown: O=C(NCc1ncc(Br)cc1Cl)c1c(I)ccnc1Cl
Result block: 100

====

# System: Plasmopara viticola
# assay-explanation: Test G: curative control of grape downy mildew on grape seedlings (sprayed after inoculation)
# Assay type: in vivo
# settings: sprayed day after inoculation, rate not given
endpoint-label: Test G disease control rating (%)
# number only, unit % dropped from output

CC(NC(=O)c1c(I)ccnc1Cl)c1ncc(Cl)cc1Cl (stereo not shown) | 100
CC(NC(=O)c1c(Cl)ccnc1Cl)c1ncc(I)cc1Cl (stereo not shown) | 100
Cc1cc(Cl)c(C(=O)NC(C)c2ncc(Br)cc2Cl)c(Cl)n1 (stereo not shown) | 100
Cc1cc(Cl)c(C(=O)NCc2ncc(I)cc2Cl)c(Cl)n1 | 95
Cc1cc(Cl)c(C(=O)NCc2ncc(Br)cc2Br)c(Cl)n1 | 100

Query block: Note Test G disease control rating for the compound shown: Cc1cc(Cl)c(C(=O)NCc2ncc(I)cc2Br)c(Cl)n1
Result block: 100

Query block: Note Test G disease control rating for the compound shown: CC(NC(=O)c1c(Br)ccnc1F)c1ncc(Br)cc1Cl (stereo not shown)
Result block: 100

Data origin, for the record: patent US20050020643A1
